Entry source: the supplement of paper PMC7125110

B1: glmS ribozyme (parent)
chain: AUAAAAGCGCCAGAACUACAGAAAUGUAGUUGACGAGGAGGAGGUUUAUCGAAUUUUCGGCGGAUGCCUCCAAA

variants of: B1; experiment: self-cleavage kobs at 640 uM GlcN6P; higher = faster cleavage; RNA array; conditions: with glucosamine-6-phosphate
This sample holds only a part of the variants without activity.
endpoint name: self-cleavage kobs at 640 uM GlcN6P

Use these answered entries as a reference point.
| residues | self-cleavage kobs at 640 uM GlcN6P |
| --- | --- |
| AUAAAAGCGCCAGAACUACAGAAAUGUAGUCGACGAGGAGGAGGUUUAUCGAGUUUUCGGCGGAUGCCUUCAAA [U31C A53G C70U] | 0.00265 s⁻¹ |
| AUAAAAGCGCCAGAACUACAGAAAUGUAGUUGACGAGGAGGAGGUUUAUCGAAUUUUUCGUGGAUGCCUCAAAA [C58U G59C C61U C71A] | < 1e-05 s⁻¹ |
| AUAAAAGAGCCAGAACUACAGAAAUGUAGUUGGAGAGGAGGAGGUUUAUCGAAUUUUCGGCGGAUGCCUCCAAA [C8A A33G C34A] | < 1e-05 s⁻¹ |

Recorded result, AUAAAAGCGCCAGAACUACAGAAAUGUAGUUGACGAGGAGGAGAUUUAUCGAAUUUUCGGCGGAUGUCUCCAAA [G44A C67U] , self-cleavage kobs at 640 uM GlcN6P: 0.00449 s⁻¹

Recorded result, AUAAAAGCGCCAGAAUUACAGAAAUGUAGUUGACGAGGAGGAGGUUUAUCGAAUUCUCGGCGGAUGCCUCCAAA [C16U U56C] , self-cleavage kobs at 640 uM GlcN6P: 0.000693 s⁻¹
